study.system: human ether-à-go-go-related gene (hERG) potassium channel (human, UniProt Q12809);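 note: peak tail current of the secondary pulse compared with the same well before compound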
Sequence (Q12809 whole entry, looked up): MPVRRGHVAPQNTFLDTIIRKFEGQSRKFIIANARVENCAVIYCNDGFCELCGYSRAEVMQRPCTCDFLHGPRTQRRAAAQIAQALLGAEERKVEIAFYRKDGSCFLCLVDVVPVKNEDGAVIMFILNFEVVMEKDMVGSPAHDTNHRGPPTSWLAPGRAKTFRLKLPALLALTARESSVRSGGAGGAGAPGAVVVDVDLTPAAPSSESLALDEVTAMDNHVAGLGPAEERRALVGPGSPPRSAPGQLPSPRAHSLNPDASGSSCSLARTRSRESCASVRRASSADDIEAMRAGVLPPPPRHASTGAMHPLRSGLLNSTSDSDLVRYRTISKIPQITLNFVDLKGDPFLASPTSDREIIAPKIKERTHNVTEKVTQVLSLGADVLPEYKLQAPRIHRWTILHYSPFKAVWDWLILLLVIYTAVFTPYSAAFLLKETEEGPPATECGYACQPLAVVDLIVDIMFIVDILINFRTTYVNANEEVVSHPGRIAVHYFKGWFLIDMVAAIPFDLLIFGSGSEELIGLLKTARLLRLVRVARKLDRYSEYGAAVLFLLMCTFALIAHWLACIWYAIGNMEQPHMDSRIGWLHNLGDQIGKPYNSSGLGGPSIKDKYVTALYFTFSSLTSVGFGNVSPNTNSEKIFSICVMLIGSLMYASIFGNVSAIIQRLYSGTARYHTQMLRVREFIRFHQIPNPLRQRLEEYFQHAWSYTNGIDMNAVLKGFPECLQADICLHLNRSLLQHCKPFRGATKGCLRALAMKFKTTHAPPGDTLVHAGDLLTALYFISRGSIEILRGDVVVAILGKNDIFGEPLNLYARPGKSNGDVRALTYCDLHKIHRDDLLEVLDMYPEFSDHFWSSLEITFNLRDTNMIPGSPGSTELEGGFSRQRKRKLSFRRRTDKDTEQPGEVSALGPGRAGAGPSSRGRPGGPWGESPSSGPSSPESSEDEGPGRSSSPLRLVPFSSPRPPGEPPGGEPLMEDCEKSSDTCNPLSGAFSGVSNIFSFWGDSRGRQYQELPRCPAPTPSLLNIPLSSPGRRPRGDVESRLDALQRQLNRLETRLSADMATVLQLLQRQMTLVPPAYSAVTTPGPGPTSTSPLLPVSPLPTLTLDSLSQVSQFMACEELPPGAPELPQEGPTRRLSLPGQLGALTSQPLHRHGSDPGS
measurement.notes: primary screen, population patch clamp on CHO cells stably expressing hERG; higher = less effect of the substance
Out of some 310,000 compounds screened, about 14,000 (4.5%) showed an effect of 50% or more. The effect is printed as a negative number. The full list was thinned out, with strong results kept by preference.
attribute.measured: hERG current change (%, negative = inhibition) at 10uM

> print(dat)
                                    molecule  measured.result
 1  COc1ccc(-c2nnc(SCC(=O)NCc3cccs3)n2CC(C)C)cc1           -15.2%
 2  COc1ccc(C(=O)NCc2ccc(N3CCN(C)CC3)cc2)cc1             5.1%
 3  CCOc1ccc(CNC(=O)CCCn2ccc3cc(S(=O)(=O)N4CCCC4)ccc32)cc1           -32.7%
 4  CCN1CCCC1CNC(=O)c1cc(N)ccc1OC.O.O=C(O)C(=O)O (centres unmarked)            13.5%
 5  CN(CC(O)COc1ccc(OCC(O)CN(C)C2CCCCC2)cc1)C1CCCCC1 (centres unmarked)            8.06%
 6  CCN1CCCC1CNC(=O)C(=O)NCCc1ccc(OC)c(OC)c1 (centres unmarked)           -1.49%
 7  CCCc1ccc(S(=O)(=O)N2CCN(C(C)C(=O)NCc3ccc(OC)cc3)CC2)cc1 (centres unmarked)           -57.4%
 8  CC(C)N1CCN(Cc2cnc(-c3ccccc3)s2)CC1CCO (centres unmarked)            -9.9%
 9    CCOC(=O)c1ccc(NC(=O)c2cc3c(s2)CCC3)cc1            6.15%
10  COc1ccc(CNC(=O)CCn2ccc3cc(S(=O)(=O)N4CCCC4)ccc32)cc1           -12.4%
11          COc1cccc2c1-c1c(C(=O)O)cccc1C2=O            15.7%
12  COC(=O)C1NN=C(C(=O)c2ccc(Br)cc2)C1c1cccc(Br)c1 (centres unmarked)            2.42%
13  CCN1CCCC1CNCC(=O)Nc1ccc(OC(F)(F)F)cc1.O=C(O)C(=O)O (centres unmarked)           -70.7%
14        Cc1ccc(-n2nnnc2SCC(=O)N2CCCCC2)cc1            -3.3%
15  Cc1cc(C)c(C)c(S(=O)(=O)NCc2ccc(C(=O)N3CCN(C)CC3)cc2)c1C            -4.7%
16      CCN(CC(=O)Nc1ccc(OC(F)F)cc1)C1CCCCC1           -73.5%
17   COC(=O)c1cccc(Cn2cc([N+](=O)[O-])cn2)c1            8.41%
18  CC(C)CCN1CCN(Cc2cnc(-c3ccccc3)s2)CC1CCO (centres unmarked)           -56.6%
19  COC(=O)CCNC(=O)CCc1ccc(S(=O)(=O)N2CCCCCC2)cc1           -12.1%
20  COc1ccc(S(=O)(=O)N2CCN(C(C)C(=O)Nc3ccc(C(C)C)cc3)CC2)cc1 (centres unmarked)           -20.6%
21  COc1ccc(CNC(=O)C(C)N2CCN(S(=O)(=O)c3ccccc3F)CC2)cc1 (centres unmarked)           -15.9%
22  COc1ccc(-n2c3c(cc(C(=O)NNc4ccccc4C)c2=O)C(=O)CC(C)(C)C3)cc1            17.7%
23  CCN1C(=O)C(=Cc2c(C)n(CC(=O)NCC3CCCO3)c3ccccc23)C(=O)N(CC)C1=S (centres unmarked)            27.5%
